A short record of IC50 observed with E coli PDF (Ni) (Escherichia coli, UniProt P0A6K3) follows.
Sequence (P0A6K3 whole entry): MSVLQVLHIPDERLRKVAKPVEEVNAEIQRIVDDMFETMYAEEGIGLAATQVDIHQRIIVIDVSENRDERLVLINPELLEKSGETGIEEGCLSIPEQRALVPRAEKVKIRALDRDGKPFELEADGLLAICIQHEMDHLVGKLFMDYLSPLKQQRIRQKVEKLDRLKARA
endpoint: IC50 (nM)

moleculesmiles=CCCC[C@H](CN(O)C=O)NC(=O)c1cn(CC)c2cc3c(cc2c1=O)OCO3 studytarget="E coli PDF (Ni) (Escherichia coli, UniProt P0A6K3)" endpoint=IC50 observedmeasurement=30
moleculesmiles=CCCC[C@H](CN(O)C=O)NC(=O)c1coc2ccccc2c1=O studytarget="E coli PDF (Ni) (Escherichia coli, UniProt P0A6K3)" endpoint=IC50 observedmeasurement=200
moleculesmiles=CCCC[C@H](CN(O)C=O)NC(=O)c1cn(CC)c2ccc(Cl)cc2c1=O studytarget="E coli PDF (Ni) (Escherichia coli, UniProt P0A6K3)" endpoint=IC50 observedmeasurement=20
moleculesmiles=CCCC[C@H](CN(O)C=O)NC(=O)c1cn(C2CCCCC2)c2ccccc2c1=O studytarget="E coli PDF (Ni) (Escherichia coli, UniProt P0A6K3)" endpoint=IC50 observedmeasurement=60
